Value source: patent US20260325417A1

- Test system: S. epidermidis
- procedure-details: Comparison of diol compounds, growth of beneficial bacteria
- Format: cell-based, Staphylococcus epidermidis
- Design: key: ++: Growth promotion; +: No effect; −: Growth inhibition; − −: 50% or more growth inhibition
- measurement-context: diol compound 1 wt %
measurement-kind: Effect on the growth of beneficial bacteria (S. epidermidis)

Some entries whose results are on file:
OCCCO
++
CC(O)C(C)O (stereo not drawn)
−
CCCC(O)CO (stereo not drawn)
−
CC(CO)CO
+

Could you tell me which Effect on the growth of beneficial bacteria (S. epidermidis) is on file for CC(O)CCO (stereo not drawn) ?
−

State the recorded Effect on the growth of beneficial bacteria (S. epidermidis) for this entry: CCCCC(O)CO (stereo not drawn)
−

----------
- Test system: S. aureus
- procedure-details: Comparison of diol compounds, growth of harmful bacteria
- Type: cell-based, Staphylococcus aureus
- measurement-context: diol compound 0.1 wt %
measurement-kind: Effect on the growth of harmful bacteria (S. aureus)

Solved cases below.
CC(CO)CO
+
OCCCO
++
CC(O)C(C)O (stereo not drawn)
+
CC(O)CCO (stereo not drawn)
+

Consider the compound CCCC(O)CO (stereo not drawn) and give its measured Effect on the growth of harmful bacteria (S. aureus).
+

Item under review: CCCCC(O)CO (stereo not drawn) . Reported Effect on the growth of harmful bacteria (S. aureus)?
+
